Target: P2Y purinoceptor 2 (Homo sapiens)
Sequence (P41231 whole entry): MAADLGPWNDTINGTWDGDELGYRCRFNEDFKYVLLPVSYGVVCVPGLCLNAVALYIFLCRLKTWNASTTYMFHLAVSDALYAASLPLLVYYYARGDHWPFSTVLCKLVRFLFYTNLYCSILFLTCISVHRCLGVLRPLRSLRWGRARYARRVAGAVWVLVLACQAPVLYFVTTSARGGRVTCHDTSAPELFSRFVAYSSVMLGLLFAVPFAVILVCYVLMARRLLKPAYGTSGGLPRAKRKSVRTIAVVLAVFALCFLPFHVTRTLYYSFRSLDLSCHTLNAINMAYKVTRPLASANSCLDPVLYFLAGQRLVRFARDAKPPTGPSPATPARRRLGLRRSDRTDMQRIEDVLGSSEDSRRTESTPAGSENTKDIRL
Test: Antagonist activity at human recombinant P2Y2 receptor in 1321N1 cells assessed as inhibition of UTP-induced calcium mobilization
measured-metric: IC50 (µM)

Past entries and their recorded results:
>>> value("Nc1c(S(=O)(=O)O)cc(Nc2ccc(Nc3nc(Cl)nc(Nc4cccc(S(=O)(=O)O)c4)n3)c(S(=O)(=O)O)c2)c2c1C(=O)c1ccccc1C2=O")
1.85
>>> value("Cc1ccccc1Nc1cc(S(=O)(=O)O)c(N)c2c1C(=O)c1ccccc1C2=O")
16.2

[I] COc1ccccc1Nc1cc(S(=O)(=O)O)c(N)c2c1C(=O)c1ccccc1C2=O
[II] Nc1c(S(=O)(=O)O)cc(Nc2ccc(Cl)cc2)c2c1C(=O)c1ccccc1C2=O
Could you please tell me which of these two has the higher IC50: I or II ? // return label of chosen record
I

----------
Target: P2Y purinoceptor 2 (Mus musculus, UniProt P35383)
Sequence (P35383 whole entry): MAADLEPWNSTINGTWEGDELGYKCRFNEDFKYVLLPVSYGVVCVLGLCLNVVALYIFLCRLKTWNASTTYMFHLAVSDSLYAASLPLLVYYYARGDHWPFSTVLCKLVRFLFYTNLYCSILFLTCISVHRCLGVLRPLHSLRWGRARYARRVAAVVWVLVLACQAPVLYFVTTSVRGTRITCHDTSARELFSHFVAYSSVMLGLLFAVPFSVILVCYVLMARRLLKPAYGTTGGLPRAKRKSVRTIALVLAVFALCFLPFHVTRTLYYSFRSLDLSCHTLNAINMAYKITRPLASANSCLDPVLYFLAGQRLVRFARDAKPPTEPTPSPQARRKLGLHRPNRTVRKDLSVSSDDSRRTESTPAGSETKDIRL
Assay: Antagonist activity at mouse P2Y2 receptor in mouse NG108-15 cells assessed as inhibition of UTP-induced calcium mobilization
measured-metric: IC50 (µM)

>>> value("Cc1ccc(C)c(Nc2cc(S(=O)(=O)O)c(N)c3c2C(=O)c2ccccc2C3=O)c1")
17
>>> value("Cc1cccc(Nc2cc(S(=O)(=O)O)c(N)c3c2C(=O)c2ccccc2C3=O)c1C")
14
>>> value("Nc1c(S(=O)(=O)O)cc(Nc2ccc(Nc3nc(Cl)nc(Nc4cccc(S(=O)(=O)O)c4)n3)c(S(=O)(=O)O)c2)c2c1C(=O)c1ccccc1C2=O")
5

[a] CC(=O)Nc1ccc(Nc2cc(S(=O)(=O)O)c(N)c3c2C(=O)c2ccccc2C3=O)cc1
[b] Cc1ccc(Nc2cc(S(=O)(=O)O)c(N)c3c2C(=O)c2ccccc2C3=O)cc1
I'm curious whether a or b has the smaller IC50 number. Which is it? // return label of chosen record
a
(a: 12 µM, b: 27 µM)

----------
Target: UniProtKB P41231
Experiment: Antagonist activity at human recombinant P2Y2 receptor in 1321N1 cells assessed as inhibition of UTP-induced calcium mobilization
Type: functional, cell-based
pIC50: −log10 of the molar value.
measured-metric: pIC50

>>> value("Cc1cccc(Nc2cc(S(=O)(=O)O)c(N)c3c2C(=O)c2ccccc2C3=O)c1C")
5.10
>>> value("COc1ccc(Nc2cc(S(=O)(=O)O)c(N)c3c2C(=O)c2ccccc2C3=O)cc1")
4.94
>>> value("CCOc1ccc(Nc2cc(S(=O)(=O)O)c(N)c3c2C(=O)c2ccccc2C3=O)cc1")
4.94
>>> value("Cc1ccc(C)c(Nc2cc(S(=O)(=O)O)c(N)c3c2C(=O)c2ccccc2C3=O)c1")
4.52
>>> value("CC(=O)Nc1ccc(Nc2cc(S(=O)(=O)O)c(N)c3c2C(=O)c2ccccc2C3=O)cc1")
5.24

[1] Nc1c(S(=O)(=O)O)cc(Nc2ccc(Nc3ccccc3)cc2)c2c1C(=O)c1ccccc1C2=O
[2] CCOc1ccccc1Nc1cc(S(=O)(=O)O)c(N)c2c1C(=O)c1ccccc1C2=O
I'm curious whether 1 or 2 has the smaller pIC50 number. Which is it? // return label of chosen record
2
(2: 4.82, 1: 5.41)

----------
Molecular target: P2Y purinoceptor 2 (Homo sapiens)
Experiment: Antagonist activity at human recombinant P2Y2 receptor in 1321N1 cells assessed as inhibition of UTP-induced calcium mobilization
measured-metric: IC50 (µM)

>>> value("Cc1ccc(Nc2cc(S(=O)(=O)O)c(N)c3c2C(=O)c2ccccc2C3=O)cc1")
24.9

[P] Cc1ccc(Nc2cc(S(=O)(=O)O)c(N)c3c2C(=O)c2ccccc2C3=O)c(C)c1
[Q] Cc1cccc(Nc2cc(S(=O)(=O)O)c(N)c3c2C(=O)c2ccccc2C3=O)c1
[R] CCc1ccccc1Nc1cc(S(=O)(=O)O)c(N)c2c1C(=O)c1ccccc1C2=O
Arrange the 3 molecules from largest to smallest IC50. Your reply should list the labels following the order given in the request.
R, P, Q
(R: 9.26 µM, P: 5.43 µM, Q: 3.04 µM)
